test-system: P-gp (Mus musculus)
Construct: from tissue; host or cells: whole living mice (in vivo, intravenous digoxin 1 mg/kg after NC-siRNA or mdr1a-1 siRNA)
measurement-protocol: P-gp function in knockdown mice assessed by digoxin plasma pharmacokinetics
Type: in vivo
test-conditions: iv, 1 mg/kg, digoxin 1 mg/kg injection, NC-siRNA iv 2 days prior
measurement-kind: Cmax (ng/mL)
Lab book: enter the figure in ng/mL, no units written.

## Task Report Cmax, nothing else, for this compound: C[C@H]1O[C@@H](O[C@H]2[C@@H](O)C[C@H](O[C@H]3[C@@H](O)C[C@H](O[C@H]4CC[C@@]5(C)[C@H](CC[C@@H]6[C@@H]5C[C@@H](O)[C@]5(C)[C@@H](C7=CC(=O)OC7)CC[C@]65O)C4)O[C@@H]3C)O[C@@H]2C)C[C@H](O)[C@@H]1O
## Result 1740

---

test-system: P-gp (Mus musculus, UniProt P21447)
Construct: from tissue; host or cells: whole living mice (in vivo, intravenous digoxin 1 mg/kg after NC-siRNA or mdr1a-1 siRNA)
Sequence (P21447 whole entry): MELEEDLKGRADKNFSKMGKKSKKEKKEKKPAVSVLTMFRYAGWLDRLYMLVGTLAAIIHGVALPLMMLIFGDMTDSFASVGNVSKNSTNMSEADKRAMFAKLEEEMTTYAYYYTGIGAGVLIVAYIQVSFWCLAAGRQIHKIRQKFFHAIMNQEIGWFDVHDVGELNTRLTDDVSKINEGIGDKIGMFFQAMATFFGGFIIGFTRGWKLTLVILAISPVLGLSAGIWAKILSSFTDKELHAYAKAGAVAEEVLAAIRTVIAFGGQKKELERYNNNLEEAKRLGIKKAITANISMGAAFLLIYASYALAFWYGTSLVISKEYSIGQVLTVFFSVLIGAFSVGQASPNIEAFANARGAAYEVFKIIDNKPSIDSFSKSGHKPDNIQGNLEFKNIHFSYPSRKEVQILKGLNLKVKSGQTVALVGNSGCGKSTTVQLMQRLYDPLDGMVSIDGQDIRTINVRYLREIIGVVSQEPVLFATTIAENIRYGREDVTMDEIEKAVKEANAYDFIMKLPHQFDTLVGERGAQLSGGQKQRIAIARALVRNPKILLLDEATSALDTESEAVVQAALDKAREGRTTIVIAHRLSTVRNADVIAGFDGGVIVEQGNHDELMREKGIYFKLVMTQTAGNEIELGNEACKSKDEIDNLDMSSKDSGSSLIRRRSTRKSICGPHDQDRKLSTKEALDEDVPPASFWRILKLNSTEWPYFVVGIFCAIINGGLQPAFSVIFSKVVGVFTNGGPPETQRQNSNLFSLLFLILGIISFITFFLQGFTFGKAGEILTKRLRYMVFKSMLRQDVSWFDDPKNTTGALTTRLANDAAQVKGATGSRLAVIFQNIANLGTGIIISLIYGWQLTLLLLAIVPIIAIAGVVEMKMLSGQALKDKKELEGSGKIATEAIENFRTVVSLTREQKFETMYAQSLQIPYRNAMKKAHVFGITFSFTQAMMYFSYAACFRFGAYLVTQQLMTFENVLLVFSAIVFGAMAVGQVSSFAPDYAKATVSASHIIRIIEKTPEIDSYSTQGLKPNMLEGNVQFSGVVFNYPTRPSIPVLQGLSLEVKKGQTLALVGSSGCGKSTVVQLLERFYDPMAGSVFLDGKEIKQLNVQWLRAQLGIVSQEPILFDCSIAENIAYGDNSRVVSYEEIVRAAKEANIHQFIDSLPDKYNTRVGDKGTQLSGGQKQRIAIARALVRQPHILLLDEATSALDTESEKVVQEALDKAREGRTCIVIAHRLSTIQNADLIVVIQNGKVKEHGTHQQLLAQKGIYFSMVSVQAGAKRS
measurement-protocol: P-gp function in knockdown mice assessed by digoxin plasma pharmacokinetics
Assay type: in vivo
test-conditions: iv, 1 mg/kg, digoxin 1 mg/kg injection, mdr1a-1 siRNA iv 2 days prior
measurement-kind: Vd (L/kg)
Lab book: enter the figure in L/kg, no units written.

## Task Report Vd, nothing else, for this molecule: C[C@H]1O[C@@H](O[C@H]2[C@@H](O)C[C@H](O[C@H]3[C@@H](O)C[C@H](O[C@H]4CC[C@@]5(C)[C@H](CC[C@@H]6[C@@H]5C[C@@H](O)[C@]5(C)[C@@H](C7=CC(=O)OC7)CC[C@]65O)C4)O[C@@H]3C)O[C@@H]2C)C[C@H](O)[C@@H]1O
## Result 0.6

---

measurement-protocol: Preliminary experiment: effect of NC-siRNA on pharmacokinetics of TP in mice
Type: in vivo
test-conditions: C57, mouse, plasma, iv, 1 mg/kg, mice, TP 1.0 mg/kg + 15 nmol NC-siRNA iv 2 days before, plasma
Method: Effect of NC-siRNA on pharmacokinetic of TP Mice were divided into two groups to collect blood samples (n=5 each): (1) 1.0 mg/kg TP + saline group; (2) 1.0 mg/kg TP + 15 nmol NC-siRNA group. The siRNA group was intravenously injected with NC-siRNA 2 days before TP dose. Blood samples were collected at 2, 5, 10, 15, 30, 60 and 120 min after TP dosing. The concentrations of TP in plasma and liver were measured by a validated LC-MS/MS method.
measurement-kind: AUC(0-t) (ng·h/mL)
Lab book: enter the figure in ng·h/mL, no units written.

## Task Report AUC(0-t), nothing else, for this compound: CC(C)[C@]12O[C@H]1[C@@H]1O[C@]13[C@]1(O[C@H]1C[C@H]1C4=C(CC[C@@]13C)C(=O)OC4)[C@@H]2O [TP, Triptolide]
## Result 99.1

---

measurement-protocol: Preliminary experiment: effect of NC-siRNA on pharmacokinetics of TP in mice
Type: in vivo
test-conditions: C57, mouse, plasma, iv, 1 mg/kg, mice, TP 1.0 mg/kg + 15 nmol NC-siRNA iv 2 days before, plasma
measurement-kind: clearance (mL/min/kg)
Lab book: enter the figure in mL/min/kg, no units written.

## Task Report clearance, nothing else, for this compound: CC(C)[C@]12O[C@H]1[C@@H]1O[C@]13[C@]1(O[C@H]1C[C@H]1C4=C(CC[C@@]13C)C(=O)OC4)[C@@H]2O [TP, Triptolide]
## Result 173
